- measured on: Polyunsaturated fatty acid lipoxygenase ALOX15 (Oryctolagus cuniculus)
- Sequence (P12530 whole entry): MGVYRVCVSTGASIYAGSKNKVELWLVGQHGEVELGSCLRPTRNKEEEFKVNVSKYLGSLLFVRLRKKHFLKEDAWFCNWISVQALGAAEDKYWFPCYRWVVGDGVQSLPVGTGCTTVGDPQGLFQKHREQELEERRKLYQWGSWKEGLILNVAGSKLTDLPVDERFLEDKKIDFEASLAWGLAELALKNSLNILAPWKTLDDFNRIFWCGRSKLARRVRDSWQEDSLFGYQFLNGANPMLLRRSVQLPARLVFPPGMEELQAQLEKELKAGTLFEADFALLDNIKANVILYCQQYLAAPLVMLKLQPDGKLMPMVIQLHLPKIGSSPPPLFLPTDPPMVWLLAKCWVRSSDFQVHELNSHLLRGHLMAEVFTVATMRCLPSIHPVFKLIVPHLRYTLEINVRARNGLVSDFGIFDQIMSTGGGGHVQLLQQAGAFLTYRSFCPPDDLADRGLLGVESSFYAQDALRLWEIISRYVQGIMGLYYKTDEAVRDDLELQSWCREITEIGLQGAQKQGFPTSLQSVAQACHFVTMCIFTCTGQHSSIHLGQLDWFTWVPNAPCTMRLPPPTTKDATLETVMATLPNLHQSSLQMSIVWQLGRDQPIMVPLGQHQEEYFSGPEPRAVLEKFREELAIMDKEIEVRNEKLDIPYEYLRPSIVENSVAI
- assay notes: Inhibitory concentration against isolated rabbit reticulocyte 15-lipoxygenase measured in the presence of linoleic acid
pIC50: −log10 of the molar value.
Readings of pIC50 for the listed compounds

| compound | measured on | relation qualifier | pIC50 |
| --- | --- | --- | --- |
| CN(CCO)C(=O)c1ccc(S(=O)(=O)NCCc2c(-c3cc4ccccc4o3)[nH]c3ccccc23)cc1 | Polyunsaturated fatty acid lipoxygenase ALOX15 (Oryctolagus cuniculus) | = | 6.36 |
| CCCCCc1ccc(S(=O)(=O)N2CCC(c3c[nH]c4ccccc34)C2)cc1 (stereo not drawn) | Polyunsaturated fatty acid lipoxygenase ALOX15 (Oryctolagus cuniculus) | < | 5.00 |
| CCCCCc1ccc(S(=O)(=O)NCCc2c[nH]c3ccccc23)cc1 | Polyunsaturated fatty acid lipoxygenase ALOX15 (Oryctolagus cuniculus) | = | 6.38 |
| CCCCCc1ccc(S(=O)(=O)NCCc2c(-c3cnc4ccccc4c3)[nH]c3ccccc23)cc1 | Polyunsaturated fatty acid lipoxygenase ALOX15 (Oryctolagus cuniculus) | = | 7.89 |
| CCCCCc1ccc(S(=O)(=O)NCCc2c(-c3ccc(Cl)cc3)[nH]c3ccccc23)cc1 | Polyunsaturated fatty acid lipoxygenase ALOX15 (Oryctolagus cuniculus) | = | 7.49 |
| CCCCCc1ccc(S(=O)(=O)NCCc2c[nH]c3cc(C(=O)OC)ccc23)cc1 | Polyunsaturated fatty acid lipoxygenase ALOX15 (Oryctolagus cuniculus) | = | 6.63 |
| CCCCCc1ccc(S(=O)(=O)N(C)CCc2c[nH]c3ccccc23)cc1 | Polyunsaturated fatty acid lipoxygenase ALOX15 (Oryctolagus cuniculus) | < | 5.00 |
| CC(C)Cc1ccc(-c2ccc(S(=O)(=O)NCCc3c[nH]c4ccccc34)cc2)cc1 | Polyunsaturated fatty acid lipoxygenase ALOX15 (Oryctolagus cuniculus) | = | 6.04 |
| COc1ccc(NC(=O)c2ccc(S(=O)(=O)NCCc3c(-c4cc5ccccc5o4)[nH]c4ccccc34)cc2)cc1 | Polyunsaturated fatty acid lipoxygenase ALOX15 (Oryctolagus cuniculus) | = | 7.96 |
| CCc1ccc(S(=O)(=O)NCCc2c[nH]c3ccccc23)cc1 | Polyunsaturated fatty acid lipoxygenase ALOX15 (Oryctolagus cuniculus) | < | 5.00 |
| CCCCCc1ccc(S(=O)(=O)NCCc2c(-c3ccc(OCC)cc3)[nH]c3ccccc23)cc1 | Polyunsaturated fatty acid lipoxygenase ALOX15 (Oryctolagus cuniculus) | = | 7.96 |
| CCCCc1ccc(S(=O)(=O)NCCc2c[nH]c3ccccc23)cc1 | Polyunsaturated fatty acid lipoxygenase ALOX15 (Oryctolagus cuniculus) | = | 5.51 |
| CN(C)CCN(C)C(=O)c1ccc(S(=O)(=O)NCCc2c(-c3cc4ccccc4o3)[nH]c3ccccc23)cc1 | Polyunsaturated fatty acid lipoxygenase ALOX15 (Oryctolagus cuniculus) | = | 7.12 |
| NNC(=O)c1ccc(S(=O)(=O)NCCc2c(-c3cc4ccccc4o3)[nH]c3ccccc23)cc1 | Polyunsaturated fatty acid lipoxygenase ALOX15 (Oryctolagus cuniculus) | = | 7.05 |
| CCCCCc1ccc(S(=O)(=O)NCCc2c(-c3ccccc3)[nH]c3ccccc23)cc1 | Polyunsaturated fatty acid lipoxygenase ALOX15 (Oryctolagus cuniculus) | = | 7.21 |
| CCCCCc1ccc(S(=O)(=O)NCCc2c(-c3cc(OC)ccc3OC)[nH]c3ccccc23)cc1 | Polyunsaturated fatty acid lipoxygenase ALOX15 (Oryctolagus cuniculus) | = | 7.55 |
| COc1ccc(-c2ccc(S(=O)(=O)NCCc3c[nH]c4ccccc34)cc2)cc1 | Polyunsaturated fatty acid lipoxygenase ALOX15 (Oryctolagus cuniculus) | = | 5.82 |
| CCCCc1ccc(-c2ccc(S(=O)(=O)NCCc3c[nH]c4ccccc34)cc2)cc1 | Polyunsaturated fatty acid lipoxygenase ALOX15 (Oryctolagus cuniculus) | = | 6.28 |
| CC(C)c1ccc(-c2ccc(S(=O)(=O)NCCc3c[nH]c4ccccc34)cc2)cc1 | Polyunsaturated fatty acid lipoxygenase ALOX15 (Oryctolagus cuniculus) | = | 6.55 |
| CCCCCc1ccc(S(=O)(=O)NCCc2c(-c3cc4ccccc4o3)n(C)c3ccccc23)cc1 | Polyunsaturated fatty acid lipoxygenase ALOX15 (Oryctolagus cuniculus) | = | 6.84 |
| COc1ccc(-c2[nH]c3ccccc3c2CCNS(=O)(=O)c2ccc(C)cc2)cc1 | Polyunsaturated fatty acid lipoxygenase ALOX15 (Oryctolagus cuniculus) | = | 6.96 |
| O=C(Nc1ccccc1)c1ccc(S(=O)(=O)NCCc2c(-c3cc4ccccc4o3)[nH]c3ccccc23)cc1 | Polyunsaturated fatty acid lipoxygenase ALOX15 (Oryctolagus cuniculus) | = | 7.82 |
| O=C(NC1CCCCC1)c1ccc(S(=O)(=O)NCCc2c(-c3cc4ccccc4o3)[nH]c3ccccc23)cc1 | Polyunsaturated fatty acid lipoxygenase ALOX15 (Oryctolagus cuniculus) | = | 7.92 |
| O=S(=O)(NCCCc1c(-c2cc3ccccc3o2)[nH]c2ccccc12)c1ccc(-c2ccccc2)cc1 | Polyunsaturated fatty acid lipoxygenase ALOX15 (Oryctolagus cuniculus) | = | 8.10 |
| Cc1ccc(S(=O)(=O)NCCc2c[nH]c3ccccc23)cc1 | Polyunsaturated fatty acid lipoxygenase ALOX15 (Oryctolagus cuniculus) | < | 5.00 |
| CCCCCc1ccc(S(=O)(=O)NCCc2c[nH]c3ccc(-c4ccc[nH]4)cc23)cc1 | Polyunsaturated fatty acid lipoxygenase ALOX15 (Oryctolagus cuniculus) | = | 6.11 |
| CCCCNC(=O)c1ccc(S(=O)(=O)NCCc2c(-c3cc4ccccc4o3)[nH]c3ccccc23)cc1 | Polyunsaturated fatty acid lipoxygenase ALOX15 (Oryctolagus cuniculus) | = | 7.38 |
| CCCc1ccc(S(=O)(=O)NCCc2c[nH]c3ccccc23)cc1 | Polyunsaturated fatty acid lipoxygenase ALOX15 (Oryctolagus cuniculus) | = | 5.50 |
| CN(C)c1cccc2c(S(=O)(=O)NCCc3c[nH]c4ccccc34)cccc12 | Polyunsaturated fatty acid lipoxygenase ALOX15 (Oryctolagus cuniculus) | = | 5.43 |
| Cc1ccc(S(=O)(=O)NCCc2c(-c3cc4ccccc4o3)[nH]c3ccccc23)cc1 | Polyunsaturated fatty acid lipoxygenase ALOX15 (Oryctolagus cuniculus) | = | 8.00 |
| O=S(=O)(NCCc1c[nH]c2ccccc12)c1ccc(-c2ccccc2)cc1 | Polyunsaturated fatty acid lipoxygenase ALOX15 (Oryctolagus cuniculus) | = | 5.47 |
| CC(C)(C)c1ccc(-c2ccc(S(=O)(=O)NCCc3c[nH]c4ccccc34)cc2)cc1 | Polyunsaturated fatty acid lipoxygenase ALOX15 (Oryctolagus cuniculus) | = | 6.57 |
| CCCCCc1ccc(S(=O)(=O)NCCc2c[nH]c3cc(C(=O)O)ccc23)cc1 | Polyunsaturated fatty acid lipoxygenase ALOX15 (Oryctolagus cuniculus) | = | 4.62 |
| O=S(=O)(NCCc1c(-c2cc3ccccc3o2)[nH]c2ccccc12)c1ccc(-c2ccncc2)cc1 | Polyunsaturated fatty acid lipoxygenase ALOX15 (Oryctolagus cuniculus) | = | 7.33 |
| O=S(=O)(NCCc1c(-c2cc3ccccc3o2)[nH]c2ccccc12)c1ccc(Br)cc1 | Polyunsaturated fatty acid lipoxygenase ALOX15 (Oryctolagus cuniculus) | = | 7.52 |
| Cc1cccc(-c2ccc(S(=O)(=O)NCCc3c[nH]c4ccccc34)cc2)c1 | Polyunsaturated fatty acid lipoxygenase ALOX15 (Oryctolagus cuniculus) | = | 6.35 |
| CCc1ccc(-c2ccc(S(=O)(=O)NCCc3c[nH]c4ccccc34)cc2)cc1 | Polyunsaturated fatty acid lipoxygenase ALOX15 (Oryctolagus cuniculus) | = | 6.59 |
| COc1ccc(-c2[nH]c3ccccc3c2CCNS(=O)(=O)c2ccc(C(=O)O)cc2)cc1 | Polyunsaturated fatty acid lipoxygenase ALOX15 (Oryctolagus cuniculus) | < | 5.00 |
